experiment: qHTS assay for small molecule disruptors of the mitochondrial membrane potential - cell viability (AID 720634); conditions: HepG2 viability, ATP luminescence (CellTiter-Glo), 1 h; series mostly up to 83.2 µM; further: nearly all actives have a fitted effect of over 20% in size
Inconclusive results are not listed. Activity calls are given as the source filed them. The call rests on the fitted dose curve.
Hi there, use one of these labels in your reply, thanks! active, inactive

Reference set (4 entries):
compound	discrete_label
CCOC(=O)COc1ccc(C)cc1	inactive
O=C1NCCN1CCN1CCC(c2cn(-c3ccc(F)cc3)c3ccc(Cl)cc23)CC1	inactive
S=P(N1CC1)(N1CC1)N1CC1	inactive
CCN(CC)CCCN(c1ccccc1)C1Cc2ccccc2C1	active

Q: Status in this test for `Cc1cc2c(C(C)C)c(O)c(O)c(C=O)c2c(O)c1-c1c(C)cc2c(C(C)C)c(O)c(O)c(C=O)c2c1O` ?
A: inactive

Q: Status in this test for `CCO[Si](CCCSSSSCCC[Si](OCC)(OCC)OCC)(OCC)OCC` ?
A: inactive

Q: Status in this test for `CCN1CCN(c2cc(-c3ccc(F)cc3)c3c(n2)CCCCCC3)CC1` ?
A: inactive

Q: Status in this test for C1CC(COCC2CO2)CCC1COCC1CO1 (configuration not stated) ?
A: inactive

Q: Status in this test for `CC(=O)Nc1ccc(O)cc1` ?
A: inactive
